method-notes: Apparent dissociation constant was measured at 110 mM salt
measured-property: Kd (µM)

>>> recorded_value("Nc1c(/N=N/c2ccc(-c3ccc(/N=N/c4cc(S(=O)(=O)O)c5ccccc5c4N)cc3)cc2)cc(S(=O)(=O)O)c2ccccc12")
1.5
